- System: Euglena gracilis Δ4-desaturase
- experiment: Substrate specificity: feeding fatty acids to yeast expressing the Δ-4-desaturase (pYES-EGD4-2), fatty acid analysis by GC
- Format: cell-based
- settings: transformed yeast (saccharomyces strain SC334, pYES-EGD4-2), 100 μM fatty acid substrate (67 μM for 16:1 Δ7), 2% galactose induction, 15° C. for 4 days
- Procedure: Yeasts transformed with the plasmid pYES-EGD4-2 as in Example 4 were analyzed in the following way: The yeast cells were grown in 1 ml of minimal medium with 0.2% raffinose for two days and then transferred into 5 ml of the same medium. […] The substrate specificities were found by feeding the transformed yeast strains with different fatty acids (Tab. 1). Conversion of the fed fatty acids to their Δ4-desaturated products was then determined.
measured-quantity: Conversion (in %) of the fed fatty acid to its Δ4-desaturated product

Record excerpt, results attached:
molecule: CCCCCCCC/C=C\CCCCCCCC(=O)O [18:1 Δ9]
value-measured: Not detectable

molecule: CC/C=C\C/C=C\C/C=C\CCCCCC(=O)O [16:3 Δ7, 10, 13]
value-measured: 21.4 (±3.3) %

molecule: CCCCCCCCCCCCCCCC(=O)O [16:0]
value-measured: Not detectable

molecule: CCCCCCCCC=CCCCCCC(=O)O [16:1 Δ7]
value-measured: 7.4 (±0.8) %

molecule: CCCCC/C=C\C/C=C\C/C=C\CCCCC(=O)O [18:3 Δ6, 9, 12]
value-measured: Not detectable

Please report the recorded Conversion (in %) of the fed fatty acid to its Δ4-desaturated product for CCCCC/C=C\C/C=C\C/C=C\C/C=C\CCCCCC(=O)O [22:4 Δ7, 10, 13, 16] .
28.7 (±2.5) %

Then what about the molecule CCCCCC/C=C\CCCCCCCC(=O)O [16:1 Δ9] ?
Not detectable

Then what about the molecule CCCCC/C=C\C/C=C\C/C=C\CCCCCCC(=O)O [20:3 Δ8, 11, 14] ?
Not detectable

Then what about the molecule CCCCC/C=C\C/C=C\CCCCCCCC(=O)O [18:2 Δ9, 12] ?
Not detectable

Then what about the molecule CC/C=C\C/C=C\C/C=C\C/C=C\C/C=C\CCCCCC(=O)O [22:5 Δ7, 10, 13, 16, 19, docosapentaenoic acid] ?
29.7 (±2.8) %

Then what about the molecule CCCCCCCCCCCCCCCCCC(=O)O [18:0] ?
Not detectable
